Would you mind telling me the reported EC50 of each entry?
Biological target: T1, human 5T4-His protein (human, UniProt Q13641 32-355)
T1 construct: also called recombinant 5T4 protein (human 5T4-his tag); human 5T4 protein; not shown: His tag
T1 sequence (looked up): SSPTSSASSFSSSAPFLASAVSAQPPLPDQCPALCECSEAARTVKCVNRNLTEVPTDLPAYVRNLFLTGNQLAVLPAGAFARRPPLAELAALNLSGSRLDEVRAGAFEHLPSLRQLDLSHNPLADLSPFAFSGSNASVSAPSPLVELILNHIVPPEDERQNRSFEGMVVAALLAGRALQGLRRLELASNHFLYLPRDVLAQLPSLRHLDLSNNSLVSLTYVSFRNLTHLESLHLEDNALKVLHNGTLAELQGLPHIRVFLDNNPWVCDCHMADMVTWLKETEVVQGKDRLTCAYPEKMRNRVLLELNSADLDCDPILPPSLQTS
Experiment: ELISA, coated 5T4-His
Hi! Could you send only the number? It should be in µg/mL, unit omitted.

Fill in the blank: the reported EC50 of Hu14G12-24 (antibody, V domains shown, humanized) VH: QVQLVQSGAEVKKPGSSVKVSCKASGYAFSSSWMNWVRQAPGQGLEWMGRIYREDGHTNYNGKFKGRVTITADKSTTTAYMELSSLRSEDTAVYYCANGGAMDYWGQGTLVTVSS VL: DIQMTQSPSSLSASVGDRVTITCRASQDISNYLNWYQQKPGKAPKLLIYYTSRLHSGVPSRFSGSGSGTDYTLTISSLQPEDIATYFCQQDNTLPWTFGGGTKVEIK is ____.
0.0049

Any idea what EC50 was measured for Hu14G12-10 (antibody, V domains shown, humanized) VH: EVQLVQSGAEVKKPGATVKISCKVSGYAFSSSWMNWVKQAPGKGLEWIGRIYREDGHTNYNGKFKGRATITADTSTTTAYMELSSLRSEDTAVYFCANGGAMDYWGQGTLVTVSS VL: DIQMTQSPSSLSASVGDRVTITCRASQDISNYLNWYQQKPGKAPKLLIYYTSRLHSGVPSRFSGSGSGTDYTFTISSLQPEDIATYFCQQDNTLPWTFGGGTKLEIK ?
0.015

May I ask what EC50 has been recorded for Hu14G12-27 (antibody, V domains shown, humanized) VH: QVQLVQSGAEVKKPGSSVKVSCKASGYAFSSSWMNWVRQAPGQGLEWMGRIYREDGHTNYNGKFKGRVTITADKSTTTAYMELSSLRSEDTAVYYCANGGAMDYWGQGTLVTVSS VL: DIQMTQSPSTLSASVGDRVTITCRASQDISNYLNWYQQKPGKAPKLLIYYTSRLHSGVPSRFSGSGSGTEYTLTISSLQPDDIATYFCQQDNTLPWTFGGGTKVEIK ?
0.0078

// EC50 lookup, key: Hu14G12-46 (antibody, V domains shown, humanized) VH: QVQLVQSGAEVKKPGASVKVSCKASGYAFSSSWMNWVRQAPGQGLEWMGRIYREDGHTNYNGKFKGRVTMTADKSTTTAYMELRSLRSDDTAVYYCANGGAMDYWGQGTLVTVSS VL: DIVMTQSPDSLAVSLGERATINCRASQDISNYLNWYQQKPGQPPKLLIYYTSRLHSGVPDRFSGSGSGTDYTLTISSLQAEDIAVYFCQQDNTLPWTFGGGTKVEIK
0.023
